System: chloroquine-sensitive West African clone (D-6)
test.summary: In vitro susceptibility (radiolabelled hypoxanthine incorporation, semi-automated microdilution), Example 1, clone D-6
Assay type: cell-based, P. falciparum
test.context: Plasmodium falciparum, read-out: fifty percent inhibitory concentration (IC50), single drug chloroquine, chloroquine alone, clone D-6
outcome.measure: IC50 (nM)
// return numeric value only (unit: nM, not printed)

Requested read-out: IC50. Entry: CCN(CC)CCCC(C)Nc1ccnc2cc(Cl)ccc12 (stereo not shown) [chloroquine]
14.1

---

Test system: chloroquine-resistant clone from Indochina (W-2)
test.summary: microbe, parasite or virus in culture
Assay type: cell-based, P. falciparum
test.context: Plasmodium falciparum, read-out: IC50 of chloroquine + 1 × 10^-6 M VER
outcome.measure: IC50 (nM)
// return numeric value only (unit: nM, not printed)

Requested read-out: IC50. Entry: CCN(CC)CCCC(C)Nc1ccnc2cc(Cl)ccc12 (stereo not shown)
8.4
